- SYSTEM: T1, 4H1348-bA
- T1 chain: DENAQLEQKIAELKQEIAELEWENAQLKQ
- ASSAY_METHOD_TEXT: two-hybrid library CCNG1;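 also: natural log of median RNA to DNA barcode read ratio; higher means stronger binding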
Assign interaction score to each entry below.
Numbers only.

Some solved entries appear below for comparison.
# BINDER, interaction score
records = [
    ("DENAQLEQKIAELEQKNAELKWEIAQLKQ [4H1338-bA]", -0.532),
    ("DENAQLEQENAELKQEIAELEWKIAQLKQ [4H1222-bA]", 0.605),
    ("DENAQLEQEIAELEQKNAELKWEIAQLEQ [4H1081-bA]", -0.834),
]

# input for lookup
Record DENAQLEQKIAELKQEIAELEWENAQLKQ [4H1348-bA] , field interaction score: 0.78

Data origin: paper PMC10397247
